B1: ZNF8 (parent)
chain: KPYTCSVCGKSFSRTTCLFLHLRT

Variants of: B1
Assay: protein stability index of a GFP-peptide fusion (GPS, HEK-293T) (PSI 1-6); higher = more stable;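 further: lentivirally expressed fusions sorted by FACS into six bins by GFP to DsRed ratio, PSI derived from sequencing read proportions per bin multiplied by bin number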
Conditions: c terminus: a fixed tail appended
# label = satisfied if protein stability index >= 2 else not satisfied

C8E    satisfied
C5L    satisfied
V7Y    satisfied
K10Y    satisfied

Given the entry "L22S" , answer whether its protein stability index meets or surpasses 2.
satisfied

Same question for "T24I" please.
not satisfied

Same question for "G9D" please.
not satisfied

Same question for "C8D" please.
satisfied

Same question for "K1F" please.
satisfied

Same question for "T16G" please.
satisfied

Same question for "R23E" please.
satisfied

Same question for "L18C" please.
satisfied

Same question for "F12N" please.
satisfied

Same question for "V7H" please.
not satisfied

Same question for "T15K" please.
satisfied

Data provenance is the supplement of paper PMC10567573.
